In this section, each of the molecules is paired with its reported GI50.
- Tested on: UO-31
- assay_protocol: NCI tumour cell line growth inhibition, 48 h
Calls of active or inactive are those of the source. No stated cut-off is given here; in the data, active = GI50 up to about 1.1 µM and inactive = higher.

Worked set:
molecule=CC(=O)Nc1ccc(S(=O)(=O)NN(C)S(=O)(=O)c2ccc(C)cc2)cc1 readout_value="> 100 µM (inactive)"
molecule="CCOC(=O)C1(Cc2ccccc2)Cc2cc3c(cc2C1=O)CCC3 (configuration not stated)" readout_value="> 100 µM (inactive)"
molecule="COc1cc(C2c3cc4c(cc3[C@@H](NCCN3CCOCC3)C3COC(=O)[C@H]23)OCO4)cc(OC)c1O (some centres not stated)" readout_value="2.94 µM (inactive)"

# next molecule below
Would you mind telling me what GI50 value was observed for COC(=O)C(C(=O)C(=O)Nc1ccc([N+](=O)[O-])cc1)c1nc2ccc([N+](=O)[O-])cc2nc1O (configuration not stated) ? > 100 µM (inactive)

* * *

- System: HCT-15
reported_endpoint: GI50

Recorded GI50, per entry:
molecule=C[C@H](Nc1nc(N)c(N=O)c(=O)n1C)C(=O)O tested_on=HCT-15 readout_value="> 10 µM"
molecule=Cc1cccc2c(N)c3cccc(C(=O)NCC[N+](C)(C)Cc4ccccc4[N+](=O)[O-])c3nc12 tested_on=HCT-15 readout_value="> 20.3 µM"
molecule="CCCCC1Cc2cc(O)ccc2-c2nc3cc(O)ccc3n21.CCCCC1Cc2cc(O)ccc2-c2nc3ccc(O)cc3n21 (configuration not stated)" tested_on=HCT-15 readout_value="11 µM"
molecule=O=[N+]([O-])c1ccc(Nc2nc3ccccc3s2)cc1 tested_on=HCT-15 readout_value="28.8 µM"
molecule="C=CCC1(C)CCCN(Cc2ccccc2)C1=O (configuration not stated)" tested_on=HCT-15 readout_value="> 10 µM"

# get_value(readout= GI50, system= HCT-15) for `O=C1c2ccccc2C(=O)N1C/C=N/NS(=O)(=O)c1ccc(F)cc1` > 100 µM

Test system HCT-15; read-out GI50; what value for CN1C(=O)NC2(O)c3ccccc3C(=O)C12O (configuration not stated) ? > 100 µM

* * *

- Tested on: A549
- assay_protocol: NCI tumour cell line growth inhibition, 48 h
Activity calls are given as the source filed them. Cut-off read from the data, not from the text of the source: active = GI50 up to about 1.1 µM and inactive = higher.
Listed next: entries and their corresponding GI50.

Sample answers from the record:
cpd_smiles=O=C(Nc1ccc(Cl)c(C(F)(F)F)c1)C(=O)c1c(O)c2ccccc2oc1=O tested_on=A549 readout_value="> 100 µM (inactive)"
cpd_smiles=C/C=C/[C@@H](C(=O)OC)N1C(=O)c2ccccc2[C@H]1O tested_on=A549 readout_value="> 100 µM (inactive)"
cpd_smiles=Cc1ccc2c(c1)/C(=N/Nc1ccccc1[N+](=O)[O-])C(=O)N2 tested_on=A549 readout_value="27.9 µM (inactive)"

Continue with the next molecule.
// lookup GI50 for `CC1=C(C(=O)Nc2c(C)cccc2C)C(c2ccc3c(c2)OCO3)C(C(=O)Nc2c(C)cccc2C)=C(C)N1` 19.7 µM (inactive)

* * *

- System: SNB-19
- assay_protocol: NCI tumour cell line growth inhibition, 48 h
The source made the active and inactive calls. No stated cut-off is given here; in the data, active = GI50 up to about 1.1 µM and inactive = higher.
reported_endpoint: GI50

Known results for compounds:
compound=Cn1nc(-c2ccccc2)c(N=[N+]=[N-])cc1=O tested_on=SNB-19 reported_endpoint=GI50 readout_value="> 100 µM (inactive)"
compound=O=C1NC(=O)/C(=C/c2ccc(S(=O)(=O)N/N=C/c3ccccc3)cc2)N1 tested_on=SNB-19 reported_endpoint=GI50 readout_value="> 100 µM (inactive)"
compound=COC(=O)c1ccccc1/C=C1\Cc2c(C)cc(C)cc2C1=O tested_on=SNB-19 reported_endpoint=GI50 readout_value="> 100 µM (inactive)"

Let us move to another entry and its GI50.
For the compound shown here, `CCOc1cc2c(NCCCN(CCO)CCO)ncnc2c(OCC)c1OCC` , give the reported GI50. > 100 µM (inactive)

* * *

- Tested on: SF-295
- assay_protocol: NCI tumour cell line growth inhibition, 48 h
The source made the active and inactive calls. Rule as the data show it: active = GI50 up to about 1.1 µM and inactive = higher.
Documented GI50 across a set of molecules

Known GI50 results, listed for orientation:
molecule="CCCCCCCCCC[C@@H](O)[C@H]1CC[C@@H]([C@H]2CC[C@H]([C@H](O)CCCCCCCCCC[C@@H]3CC(CC(C)=O)C(=O)O3)O2)O1 (some centres undefined)" reported_endpoint=GI50 readout_value="1.77 µM (inactive)"
molecule=C=CC[C@H]1C[C@@]2(C)OC[C@H](C(C)C)N2C1=O reported_endpoint=GI50 readout_value="> 100 µM (inactive)"
molecule="CC1(C)c2ccccc2C(C)(C)C(C(=O)Nc2ccccc2)C1C(=O)O (centres undefined)" reported_endpoint=GI50 readout_value="> 100 µM (inactive)"

Pending molecule:
Lab note: need GI50 with SF-295 for entry CCCCCCCCCCCCCC(=O)OCC1OC(n2cc(F)c(=O)[nH]c2=O)C(NC(=O)OCc2ccccc2)C(OC(=O)CCCCCCCCCCCCC)C1O (centres undefined) , please look it up. 22.9 µM (inactive)

* * *

# GI50 per record follows
- Test system: SF-295
- assay_protocol: NCI tumour cell line growth inhibition, 48 h
The source made the active and inactive calls. Cut-off read from the data, not from the text of the source: active = GI50 up to about 1.1 µM and inactive = higher.

molecule=CC(=O)OC(C)(C)C[N+](=O)[O-] tested_on=SF-295 reported_endpoint=GI50 readout_value="> 100 µM (inactive)"
molecule="N#CC1Nc2ccccc2[C@@H](O)C1O (stereo partly drawn)" tested_on=SF-295 reported_endpoint=GI50 readout_value="> 100 µM (inactive)"
molecule="COC(=O)C(Cc1nc2ccccc2nc1C)/C(=N\\NC(N)=O)C(=O)Nc1cccc([N+](=O)[O-])c1 (stereo not drawn)" tested_on=SF-295 reported_endpoint=GI50 readout_value="> 100 µM (inactive)"
molecule=COC(=O)c1ccccc1/C=C1\Cc2c(C)cc(C)cc2C1=O tested_on=SF-295 reported_endpoint=GI50 readout_value="> 100 µM (inactive)"
molecule="CC(=O)O[C@H]1CC[C@@]2(C)C(=CC[C@@H]3C2CC[C@]2(C)C(=O)NC(=O)CC32)C1 (stereo partly drawn)" tested_on=SF-295 reported_endpoint=GI50 readout_value="> 100 µM (inactive)"
molecule="CCCCSCC(NC(=O)/C=C/c1c(C)[nH]c(=O)[nH]c1=O)C(=O)OC (stereo not drawn)" tested_on=SF-295 reported_endpoint=GI50 readout_value="101 µM (inactive)"

# query: GI50 of entry CC1CCC2(CC1)NC1=C(CC(C)CC1)C1=C2CC(C)CC1 (stereo not drawn) 18.1 µM (inactive)

Given the entry `CCCc1c(C(=O)OCC)[nH]c(-c2ccc(-c3[nH]c(C(=O)OCC)c(CCC)c3C(=O)OCC)o2)c1C(=O)OCC` , report its measured GI50. > 100 µM (inactive)

Reported GI50, molecule `O=C(CCCN1CCC2(CC1)/C(=N/C1CCCCC1)NC(=O)N2c1ccccc1)c1ccc(F)cc1` : ____ 19.5 µM (inactive)

Reported GI50, molecule `C#CCn1c(=O)c(I)cn(/C(=C/C(=O)OCC)C(=O)OCC)c1=O` : ____ 39.7 µM (inactive)

// lookup GI50 for CCC(C(C)N1CC(=O)NC(=O)C1)N1CC(=O)NC(=O)C1 (stereo not drawn) > 100 µM (inactive)

# GI50 lookup, item `O=C(CSCC(=O)N/N=C/c1cccs1)N/N=C/c1cccs1` 52.7 µM (inactive)

Given the molecule COc1ccc(C(c2cc(OC)c(OC)c(OC)c2)N2C(=O)CCC2C(=O)O)cc1 (stereo not drawn) , what is its reported GI50? 24.3 µM (inactive)

* * *

- System: SK-MEL-2
- assay_protocol: NCI tumour cell line growth inhibition, 48 h
Calls of active or inactive are those of the source. No stated cut-off is given here; in the data, active = GI50 up to about 1.1 µM and inactive = higher.
Outcome field: choose from label 1 = active, label 0 = inactive

Example entries and their recorded answers appear below.
molecule="COc1ccccc1C1C(C(=O)O)=C(CO)Oc2cc3c(cc21)OCO3 (stereo not given)" group="label 0"
molecule=Clc1ccc2c(NCCNc3ccnc4cc(Cl)ccc34)ccnc2c1 group="label 0"
molecule=Cc1c2c(n(CCc3ccccc3)c1C)N(C)N=C(C#N)S2(=O)=O group="label 0"
molecule="O=C1N2CCc3c([nH]c4ccccc34)C23CC2CCCCC12S3 (stereo not given)" group="label 1"
molecule=CN(C)c1nc2sc3c(c2c(=O)o1)CCCC3 group="label 0"

How was `S=C(NCc1ccccn1)N/N=C/c1ccccn1` classified in this test? label 1

GET /call?item= Cc1ccccc1C1OC1C(=O)c1ccccc1N (stereo not given) returns the recorded outcome of this test. label 0

// return assay outcome for `O=c1c2sc3ccccc3sc=2c(=O)c2c(Cl)c(Cl)c(Cl)c(Cl)c12` label 0

Any idea what this test logged for `Cc1ccc(C(=O)N/N=C(\N=N\c2cccc([N+](=O)[O-])c2)c2ccc(N(CCC#N)CCC#N)cc2C)cc1` ? label 0

# lookup: test call for `Cc1cc(C(C)(C)C)cc(Cc2cc(C(C)(C)C)cc(Cc3cc(C(C)(C)C)cc(C)c3O)c2O)c1O` label 0
